Data provenance is patent EP2982368A1.

# Experimental System: FAK (Mus musculus, UniProt P34152)
# Sequence (P34152 whole entry): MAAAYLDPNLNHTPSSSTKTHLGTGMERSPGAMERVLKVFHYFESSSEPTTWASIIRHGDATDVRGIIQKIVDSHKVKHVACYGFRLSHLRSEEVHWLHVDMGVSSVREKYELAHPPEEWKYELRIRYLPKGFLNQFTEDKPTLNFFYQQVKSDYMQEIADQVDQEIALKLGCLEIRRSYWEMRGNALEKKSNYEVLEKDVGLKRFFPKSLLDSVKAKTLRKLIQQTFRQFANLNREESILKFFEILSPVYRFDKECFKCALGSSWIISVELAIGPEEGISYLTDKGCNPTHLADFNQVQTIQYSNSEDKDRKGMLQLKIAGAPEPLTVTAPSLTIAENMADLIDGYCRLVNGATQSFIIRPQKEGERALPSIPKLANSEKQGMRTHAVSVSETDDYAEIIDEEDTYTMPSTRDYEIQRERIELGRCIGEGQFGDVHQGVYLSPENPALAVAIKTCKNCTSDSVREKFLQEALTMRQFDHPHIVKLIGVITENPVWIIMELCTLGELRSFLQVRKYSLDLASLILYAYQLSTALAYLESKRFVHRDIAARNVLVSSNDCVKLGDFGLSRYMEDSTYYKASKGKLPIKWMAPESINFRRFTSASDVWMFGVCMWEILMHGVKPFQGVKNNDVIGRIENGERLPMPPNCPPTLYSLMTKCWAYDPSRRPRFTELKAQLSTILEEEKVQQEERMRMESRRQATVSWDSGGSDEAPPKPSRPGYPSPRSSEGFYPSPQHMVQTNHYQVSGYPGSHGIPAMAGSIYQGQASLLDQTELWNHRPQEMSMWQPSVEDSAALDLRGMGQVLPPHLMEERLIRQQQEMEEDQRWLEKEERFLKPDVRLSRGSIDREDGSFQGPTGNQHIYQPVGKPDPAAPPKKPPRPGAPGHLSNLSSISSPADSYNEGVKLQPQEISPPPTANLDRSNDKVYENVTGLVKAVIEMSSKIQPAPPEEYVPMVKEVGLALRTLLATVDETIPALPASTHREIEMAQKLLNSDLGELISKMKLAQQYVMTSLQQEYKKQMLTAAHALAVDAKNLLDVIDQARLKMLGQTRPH
# Assay Remarks: GFP-FAK displacement from focal adhesions (fluorescence imaging, ImageJ quantification of focal adhesions per cell)
# Study Conditions: GFP-FAK MEFs on fibronectin, 1 h incubation, focal adhesions per cell, Hill slope model; read-out: IC50 (displacement of FAK from focal adhesions, cellular IC50)
pIC50: −log10 of the molar value.
Parameter Measured: pIC50

> print(dat)
                     compound  parameter.measured  result
1  O=[N+]([O-])C=Cc1cc(Br)cs1               pIC50   ~5.70

Switching to the query record.
Q) Given the compound Nc1ccc(SC(C[N+](=O)[O-])c2ccc(Cl)cc2)cc1 (centres unmarked) , write its reported pIC50.
A) ~5.39
